biological target: Angiotensin II receptor (Rattus norvegicus, UniProt P29089+P25095+P35351); test: Antagonistic effect against Angiotensin II receptor in zona glomerulosa; type: functional
Square brackets hold non-standard residues; d marks the D form. Peptide text beside a SMILES is read from it. * marks the point of attachment. Gly(cPent) = N[C@H](C(=O)O)C1CCCC1; Chg = N[C@H](C(=O)O)C1CCCCC1; Lac = C[C@H](O)C(=O)O; Glycolyl = O=C(CO)*
parameter measured: pA2

>  <compound>
CC(C)[C@H](NC(=O)[C@H](CCCN=C(N)N)NC(=O)[C@H](C)O)C(=O)N[C@@H](Cc1ccc(O)cc1)C(=O)N[C@H](C(=O)N[C@@H](Cc1c[nH]cn1)C(=O)N1CCC[C@H]1C(=O)O[C@@H](C)C(=O)O)C1CCCC1 (H-[Lac]RVY[Gly(cPent)]HP[Lac]-OH)

>  <pA2>
8.392

$$$$
>  <compound>
CC(C)[C@H](NC(=O)[C@H](CCCN=C(N)N)NC(=O)CO)C(=O)N[C@@H](Cc1ccc(O)cc1)C(=O)N[C@H](C(=O)N[C@@H](Cc1c[nH]cn1)C(=O)N1CCC[C@H]1C(=O)O[C@@H](C)C(=O)O)C1CCCCC1 (Glycolyl-RVY[Chg]HP[Lac]-OH)

>  <pA2>
8.614

$$$$
>  <compound>
CNCC(=O)N[C@@H](CCCN=C(N)N)C(=O)N[C@H](C(=O)N[C@@H](Cc1ccc(O)cc1)C(=O)N[C@H](C(=O)N[C@@H](Cc1c[nH]cn1)C(=O)N1CCC[C@H]1C(=O)N[C@@H](C)C(=O)O)C1CCCCC1)C(C)C

>  <pA2>
9.981

$$$$

* * *

target: Angiotensin II receptor (Rattus norvegicus, UniProt P29089+P25095+P35351); test: Antagonistic effect against Angiotensin II receptor in zona glomerulosa; assay type: functional
Square brackets hold non-standard residues; d marks the D form. Peptide text beside a SMILES is read from it. Gly(cPent) = N[C@H](C(=O)O)C1CCCC1; Chg = N[C@H](C(=O)O)C1CCCCC1; Lac = C[C@H](O)C(=O)O; Sar = CNCC(=O)O
parameter measured: pA2

>  <compound>
CNCC(=O)N[C@@H](CCCN=C(N)N)C(=O)N[C@H](C(=O)N[C@@H](Cc1ccc(O)cc1)C(=O)N[C@H](C(=O)N[C@@H](Cc1c[nH]cn1)C(=O)N1CCC[C@H]1C(=O)O[C@@H](C)C(=O)O)C1CCCC1)C(C)C (H-[Sar]RVY[Gly(cPent)]HP[Lac]-OH)

>  <pA2>
9.649

$$$$
>  <compound>
CNCC(=O)N[C@@H](CCCN=C(N)N)C(=O)N[C@H](C(=O)N[C@@H](Cc1ccc(O)cc1)C(=O)N[C@H](C(=O)N[C@@H](Cc1c[nH]cn1)C(=O)N1CCC[C@H]1C(=O)N[C@@H](C)C(=O)O)C1CCCC1)C(C)C

>  <pA2>
9.933

$$$$
>  <compound>
CC[C@H](C)[C@H](NC(=O)[C@H](Cc1ccc(O)cc1)NC(=O)[C@@H](NC(=O)[C@H](CCCN=C(N)N)NC(=O)[C@H](C)O)C(C)C)C(=O)N[C@@H](Cc1c[nH]cn1)C(=O)N1CCC[C@H]1C(=O)O[C@@H](C)C(=O)O

>  <pA2>
7.999

$$$$
>  <compound>
CNCC(=O)N[C@@H](CCCN=C(N)N)C(=O)N[C@H](C(=O)N[C@@H](Cc1ccc(O)cc1)C(=O)N[C@H](C(=O)N[C@@H](Cc1c[nH]cn1)C(=O)N1CCC[C@H]1C(=O)O[C@@H](C)C(=O)O)C1CCCCC1)C(C)C (H-[Sar]RVY[Chg]HP[Lac]-OH)

>  <pA2>
10.39

$$$$

Provenance of the data: ChEMBL document CHEMBL1123603
